Just for reference, paper PMC8600679 is where these values come from.

# targetEntity: Atlantic cod Ahr1a (Gadus morhua, UniProt A0A6H1Z2L5)
# Sequence (A0A6H1Z2L5 1-957): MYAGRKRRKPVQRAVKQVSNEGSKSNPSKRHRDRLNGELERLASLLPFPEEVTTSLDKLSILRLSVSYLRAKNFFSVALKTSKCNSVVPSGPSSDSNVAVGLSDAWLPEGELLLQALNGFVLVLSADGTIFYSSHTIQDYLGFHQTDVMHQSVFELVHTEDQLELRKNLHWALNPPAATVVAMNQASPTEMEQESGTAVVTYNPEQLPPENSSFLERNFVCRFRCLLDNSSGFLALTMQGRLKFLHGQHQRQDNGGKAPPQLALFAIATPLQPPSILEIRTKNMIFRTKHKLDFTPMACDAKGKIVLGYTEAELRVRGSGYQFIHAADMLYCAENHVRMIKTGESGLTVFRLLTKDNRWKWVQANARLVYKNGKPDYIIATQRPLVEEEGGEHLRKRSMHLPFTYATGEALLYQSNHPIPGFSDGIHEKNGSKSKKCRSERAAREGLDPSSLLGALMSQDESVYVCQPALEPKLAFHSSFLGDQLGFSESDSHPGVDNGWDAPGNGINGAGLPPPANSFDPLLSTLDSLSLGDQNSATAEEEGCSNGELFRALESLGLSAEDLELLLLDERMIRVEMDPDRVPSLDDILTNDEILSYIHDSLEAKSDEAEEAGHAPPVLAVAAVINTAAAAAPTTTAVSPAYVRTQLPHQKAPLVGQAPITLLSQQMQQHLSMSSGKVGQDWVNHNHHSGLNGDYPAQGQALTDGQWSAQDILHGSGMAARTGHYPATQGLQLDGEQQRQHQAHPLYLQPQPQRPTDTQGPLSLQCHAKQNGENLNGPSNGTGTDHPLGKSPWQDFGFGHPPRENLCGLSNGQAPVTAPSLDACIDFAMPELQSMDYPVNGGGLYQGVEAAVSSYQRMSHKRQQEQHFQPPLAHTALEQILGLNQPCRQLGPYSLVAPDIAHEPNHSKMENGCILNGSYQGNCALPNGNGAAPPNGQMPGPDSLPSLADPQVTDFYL
# Sequence (A0A8C5CZZ9 1-645 partner): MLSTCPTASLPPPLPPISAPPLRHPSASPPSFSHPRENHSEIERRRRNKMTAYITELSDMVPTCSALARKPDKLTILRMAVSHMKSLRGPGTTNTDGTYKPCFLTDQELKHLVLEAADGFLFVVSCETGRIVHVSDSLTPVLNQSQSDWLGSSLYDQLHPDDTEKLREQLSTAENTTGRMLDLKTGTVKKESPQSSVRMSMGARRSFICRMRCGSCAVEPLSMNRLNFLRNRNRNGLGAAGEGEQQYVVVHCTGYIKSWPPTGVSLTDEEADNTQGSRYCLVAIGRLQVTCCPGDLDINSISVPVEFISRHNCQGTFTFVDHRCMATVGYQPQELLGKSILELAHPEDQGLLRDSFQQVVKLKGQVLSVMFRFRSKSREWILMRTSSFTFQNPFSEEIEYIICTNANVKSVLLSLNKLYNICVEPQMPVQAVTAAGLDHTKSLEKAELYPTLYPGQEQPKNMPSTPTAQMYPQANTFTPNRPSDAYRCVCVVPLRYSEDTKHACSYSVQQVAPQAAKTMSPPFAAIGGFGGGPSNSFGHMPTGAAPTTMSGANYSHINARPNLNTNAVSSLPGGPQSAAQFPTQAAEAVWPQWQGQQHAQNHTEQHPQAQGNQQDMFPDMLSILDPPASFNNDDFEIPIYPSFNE
# method: cell-based
# details: EC25 of TCDD divided by concentration of PAC giving 25% of TCDD response
measurementKind: Ahr1a REP25
// response body must contain only the number

Problem: Name the recorded Ahr1a REP25 for COc1ccc2c(ccc3c4ccccc4ccc23)c1 [2-MOC, 2-Methoxychrysene] .
Solution: 0.244

Problem: Name the recorded Ahr1a REP25 for Oc1ccc2c(ccc3c4ccccc4ccc23)c1 [2-COH, Chrysene-2-ol] .
Solution: 0.00268

Problem: Name the recorded Ahr1a REP25 for COc1cc2ccc3c4ccccc4ccc3c2cc1OC [2,3-DMOC, 2,3-Dimethoxychrysene] .
Solution: 0.0083

Problem: Name the recorded Ahr1a REP25 for Cc1cccc2ccc3c4ccccc4ccc3c12 [4-MC, 4-Methylchrysene] .
Solution: 0.041

Problem: Name the recorded Ahr1a REP25 for CCCc1ccc2ccc3ccccc3c2c1 [3-PP, 3-Propylphenanthrene] .
Solution: 0.00011

====

# targetEntity: Atlantic cod Ahr1a (Gadus morhua, UniProt A0A6H1Z2L5)
# method: cell-based
# details: Supplementary Table S5; read-out: Potency (EC50, nM) Ahr1a
Please respond with reported EC50 for every item in the list.
Numeric only. Scale: nM

Problem: Name the recorded EC50 for Cc1ccc2ccc3c4ccccc4ccc3c2c1 .
Solution: 101

Problem: Name the recorded EC50 for c1ccc2c(c1)ccc1c3ccccc3ccc21 .
Solution: 481

Problem: Name the recorded EC50 for COc1cccc2c1ccc1c3ccccc3ccc21 .
Solution: 102

Problem: Name the recorded EC50 for Cc1cc2ccccc2c2ccc3ccccc3c12 .
Solution: 596

Problem: Name the recorded EC50 for Oc1ccc2ccc3c4ccccc4ccc3c2c1 .
Solution: 345

Problem: Name the recorded EC50 for Cc1cc2c3ccccc3ccc2c2ccccc12 .
Solution: 3540

====

# targetEntity: Atlantic cod Ahr2a (Gadus morhua)
# Sequence (A0A6H1Z3G8 1-1127): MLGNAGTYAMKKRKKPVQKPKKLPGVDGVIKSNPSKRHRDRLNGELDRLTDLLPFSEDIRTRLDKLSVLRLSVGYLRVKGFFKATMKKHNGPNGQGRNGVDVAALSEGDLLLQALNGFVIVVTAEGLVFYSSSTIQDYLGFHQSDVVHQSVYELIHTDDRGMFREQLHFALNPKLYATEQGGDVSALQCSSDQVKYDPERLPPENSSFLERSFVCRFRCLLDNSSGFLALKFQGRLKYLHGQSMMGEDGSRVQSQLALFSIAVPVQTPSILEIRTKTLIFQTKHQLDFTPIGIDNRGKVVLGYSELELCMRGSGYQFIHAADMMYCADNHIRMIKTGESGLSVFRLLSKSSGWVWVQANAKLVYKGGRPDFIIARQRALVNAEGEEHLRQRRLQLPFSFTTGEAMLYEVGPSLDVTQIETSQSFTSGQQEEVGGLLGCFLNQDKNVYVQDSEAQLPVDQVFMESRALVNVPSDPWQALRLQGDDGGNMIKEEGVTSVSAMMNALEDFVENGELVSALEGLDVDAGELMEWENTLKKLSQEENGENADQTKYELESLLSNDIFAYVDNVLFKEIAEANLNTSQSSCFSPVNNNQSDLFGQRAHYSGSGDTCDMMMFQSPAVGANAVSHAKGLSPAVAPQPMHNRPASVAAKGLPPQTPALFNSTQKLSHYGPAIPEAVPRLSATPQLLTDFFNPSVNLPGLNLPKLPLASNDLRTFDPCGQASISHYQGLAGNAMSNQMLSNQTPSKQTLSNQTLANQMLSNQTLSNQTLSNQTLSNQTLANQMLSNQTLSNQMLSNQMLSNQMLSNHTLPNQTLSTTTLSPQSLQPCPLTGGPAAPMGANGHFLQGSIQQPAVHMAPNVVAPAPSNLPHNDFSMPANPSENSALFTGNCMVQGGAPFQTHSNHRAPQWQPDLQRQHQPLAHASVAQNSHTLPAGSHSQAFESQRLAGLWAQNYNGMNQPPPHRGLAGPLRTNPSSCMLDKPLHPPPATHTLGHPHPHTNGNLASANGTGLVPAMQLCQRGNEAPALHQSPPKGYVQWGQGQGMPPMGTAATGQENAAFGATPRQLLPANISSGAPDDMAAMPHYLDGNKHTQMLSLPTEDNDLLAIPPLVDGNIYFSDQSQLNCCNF
# method: cell-based
# details: percent of maximum efficacy determined for TCDD; COS-7 cells, 24 h exposure; None = no agonistic response significantly different from solvent
measurementKind: Ahr2a Relative Emax (%)

Examples from the recorded data:
compound: Cc1cc2ccc3ccccc3c2cc1C [2,3-DMP, 2,3-Dimethylphenanthrene]
endpointResult: None
--
compound: Cc1ccc2c(ccc3c(C)cccc32)c1 [1,7-DMP, 1,7-Dimethylphenanthrene]
endpointResult: None
--
compound: c1ccc2ccccc2c1 [NAP, Naphthalene]
endpointResult: None
--
compound: c1ccc2c(c1)ccc1c3ccccc3ccc21 [CHR, Chrysene]
endpointResult: None
--
compound: Cc1ccc2c(ccc3cc(C)ccc32)c1 [2,7-DMP, 2,7-Dimethylphenanthrene]
endpointResult: None

Problem: Name the recorded Ahr2a Relative Emax (%) for Cc1ccc2ccc3ccc(C)cc3c2c1 [3,6-DMP, 3,6-Dimethylphenanthrene] .
Solution: None

Problem: Name the recorded Ahr2a Relative Emax (%) for c1ccc2c(c1)Cc1ccccc1-2 [FLU, Fluorene] .
Solution: None

====

Please respond with reported pEC50 for every item in the list.
# targetEntity: Atlantic cod Ahr2a (Gadus morhua)
# method: cell-based
# details: COS-7 cells, 24 h exposure; read-out: Ahr2a EC50
API: returns pEC50 as number; meaning -log10 of concentration in mol/L.

Problem: Name the recorded pEC50 for Cc1ccc2ccc3c4ccccc4ccc3c2c1 .
Solution: 7.27

Problem: Name the recorded pEC50 for COc1cc2ccc3c4ccccc4ccc3c2cc1OC .
Solution: 6.44

Problem: Name the recorded pEC50 for COc1ccc2c(ccc3c4ccccc4ccc23)c1 .
Solution: 7.70

Problem: Name the recorded pEC50 for Cc1cccc2ccc3c4ccccc4ccc3c12 .
Solution: 6.89

Problem: Name the recorded pEC50 for COc1cccc2ccc3c4ccccc4ccc3c12 .
Solution: 7.51

Problem: Name the recorded pEC50 for COc1cccc2c1ccc1c3ccccc3ccc21 .
Solution: 6.80

Problem: Name the recorded pEC50 for COc1ccc2ccc3c4ccccc4ccc3c2c1 .
Solution: 7.01

Problem: Name the recorded pEC50 for Cc1cc2c3ccccc3ccc2c2ccccc12 .
Solution: 5.64

Problem: Name the recorded pEC50 for Cc1cc2ccccc2c2ccc3ccccc3c12 .
Solution: 6.71

Problem: Name the recorded pEC50 for Cc1ccc2c(ccc3c4ccccc4ccc23)c1 .
Solution: 7.38

Problem: Name the recorded pEC50 for Oc1ccc2ccc3c4ccccc4ccc3c2c1 .
Solution: 6.56

====

# targetEntity: Atlantic cod Ahr1a (Gadus morhua)
# method: cell-based
# details: percent of maximum efficacy determined for TCDD; COS-7 cells, 24 h exposure; None = no agonistic response significantly different from solvent; read-out: Ahr1a Relative Emax (%)
measurementKind: Emax

Problem: Name the recorded Emax for Cc1ccc2c(ccc3c4ccccc4ccc23)c1 [2-MC, 2-Methylchrysene] .
Solution: 125%

Problem: Name the recorded Emax for COc1cccc2c1ccc1c3ccccc3ccc21 [1-MOC, 1-Methoxychrysene] .
Solution: 97.3%

Problem: Name the recorded Emax for Cc1cc2ccccc2c2ccc3ccccc3c12 [5-MC, 5-Methylchrysene] .
Solution: 90.1%

Problem: Name the recorded Emax for Oc1ccc2ccc3c4ccccc4ccc3c2c1 [3-COH, Chrysene-3-ol] .
Solution: 86.5%

Problem: Name the recorded Emax for COc1cc2ccc3c4ccccc4ccc3c2cc1OC [2,3-DMOC, 2,3-Dimethoxychrysene] .
Solution: 77.5%

Problem: Name the recorded Emax for COc1ccc2ccc3c4ccccc4ccc3c2c1 [3-MOC, 3-Methoxychrysene] .
Solution: 66.6%

Problem: Name the recorded Emax for Oc1cccc2ccc3c4ccccc4ccc3c12 [4-COH, Chrysene-4-ol] .
Solution: 91.7%

Problem: Name the recorded Emax for Cc1cccc2ccc3c4ccccc4ccc3c12 [4-MC, 4-Methylchrysene] .
Solution: 113%

Problem: Name the recorded Emax for c1ccc2c(c1)ccc1c3ccccc3ccc21 [CHR, Chrysene] .
Solution: 40.8%

====

# targetEntity: Atlantic cod Ahr1a (Gadus morhua)
# method: cell-based
# details: Ahr1a EC50 (nM), COS-7 cells, 24 h exposure
Please respond with reported log10(EC50) for every item in the list.
Values reflect log10 of reported EC50 (nM).

Problem: Name the recorded log10(EC50) for Clc1cc2c(cc1Cl)Oc1cc(Cl)c(Cl)cc1O2 [TCDD, 2,3,7,8-Tetrachlorodibenzo-p-dioxin, reference compound] .
Solution: 0.23

Problem: Name the recorded log10(EC50) for Cc1cccc2c1ccc1c3ccccc3ccc21 .
Solution: 2.24

Problem: Name the recorded log10(EC50) for Oc1ccc2c(ccc3c4ccccc4ccc23)c1 .
Solution: 2.51

Problem: Name the recorded log10(EC50) for c1ccc2c(c1)cc1ccc3cccc4ccc2c1c34 [BAP, Benzo[a]pyrene] .
Solution: 1.41

Problem: Name the recorded log10(EC50) for Oc1cccc2c1ccc1c3ccccc3ccc21 .
Solution: 2.69

====

# targetEntity: Atlantic cod Ahr2a (Gadus morhua)
# method: cell-based
# details: Welch's t-test, Supporting Table S6

compound: COc1ccc2c(ccc3c4ccccc4ccc23)c1 [2-MOC, 2-Methoxychrysene]
Efficacy compared to TCDD via Ahr2a: superefficacies

compound: Cc1ccc2c(ccc3c4ccccc4ccc23)c1 [2-MC, 2-Methylchrysene]
Efficacy compared to TCDD via Ahr2a: superefficacies

====

Please respond with reported Emax for every item in the list.
# targetEntity: Atlantic cod Ahr1a (Gadus morhua, UniProt A0A6H1Z2L5)
# method: cell-based
# details: COS-7, read-out: Ahr1a Relative Emax (%)
Numeric only. Scale: %

Problem: Name the recorded Emax for Oc1ccc2c(ccc3c4ccccc4ccc23)c1 .
Solution: 91.1

Problem: Name the recorded Emax for Oc1cccc2c1ccc1c3ccccc3ccc21 .
Solution: 116

Problem: Name the recorded Emax for Cc1cccc2c1ccc1c3ccccc3ccc21 .
Solution: 45.8

Problem: Name the recorded Emax for c1ccc2c(c1)cc1ccc3cccc4ccc2c1c34 [BAP, Benzo[a]pyrene] .
Solution: 107

Problem: Name the recorded Emax for Clc1cc2c(cc1Cl)Oc1cc(Cl)c(Cl)cc1O2 [TCDD, 2,3,7,8-Tetrachlorodibenzo-p-dioxin, reference compound] .
Solution: 99.7

====

# targetEntity: UniProt A0A6H1Z3G8
# method: cell-based
# details: percent of maximum efficacy determined for TCDD; COS-7 cells, 24 h exposure; None = no agonistic response significantly different from solvent; read-out: Ahr2a Relative Emax (%)
measurementKind: Emax

Problem: Name the recorded Emax for Cc1ccc2c(ccc3c4ccccc4ccc23)c1 .
Solution: 127%

Problem: Name the recorded Emax for Cc1cc2c3ccccc3ccc2c2ccccc12 .
Solution: 89.8%

Problem: Name the recorded Emax for COc1cccc2c1ccc1c3ccccc3ccc21 .
Solution: 66.4%

====

Please respond with reported Ahr1a REP25 for every item in the list.
# targetEntity: Atlantic cod Ahr1a (Gadus morhua, UniProt A0A6H1Z2L5)
# method: cell-based
# details: EC25 of TCDD divided by concentration of PAC giving 25% of TCDD response

Problem: Name the recorded Ahr1a REP25 for O[C@@H]1C=Cc2ccccc2[C@H]1O [R,R-1,2-DHN, (1R,2R)-1.2-Dihydronaphthalene-1,2-diol] .
Solution: 0.00028

Problem: Name the recorded Ahr1a REP25 for COc1cccc2ccc3c4ccccc4ccc3c12 [4-MOC, 4-Methoxychrysene] .
Solution: 0.033

Problem: Name the recorded Ahr1a REP25 for Oc1ccc2ccc3c4ccccc4ccc3c2c1 [3-COH, Chrysene-3-ol] .
Solution: 0.00257

Problem: Name the recorded Ahr1a REP25 for Cc1ccc2ccc3c4ccccc4ccc3c2c1 [3-MC, 3-Methylchrysene] .
Solution: 0.0413

Problem: Name the recorded Ahr1a REP25 for COc1ccc2ccc3c4ccccc4ccc3c2c1 [3-MOC, 3-Methoxychrysene] .
Solution: 0.0056
